Each item that follows carries a reported LC retention time.
# MEASUREMENT PROTOCOL: Waters ACQUITY UPLC BEH C18, 100 × 2.1 mm, 1.7 µm, 40 °C, 0.3 to 0.4 mL/min, estimated dead time 0.63 min; A: water + 0.1% formic acid; B: methanol + 0.1% formic acid; gradient (min/%B) 0/0.5 0.1/0.5 10/80 10.1/99.5 12/99.5
# ASSAY SETUP: stereoisomer not certain
Answer as a quantity: numeral, then unit.

>  <COMPOUND>
CC(C)C(NC(=O)C(N)Cc1ccccc1)C(=O)O (centres undefined)

>  <ENDPOINT NAME>
LC retention time

>  <DATA VALUE>
2.98 min

$$$$
>  <COMPOUND>
CC1OC(OC2CCC3(C)C(CCC4(C)C3CC=C3C5CC(C)(C)CCC5(C(=O)O)CCC34C)C2(C)CO)C(O)C(OC2OC(CO)C(OC3OC(CO)C(O)C(O)C3O)C(O)C2O)C1O (centres undefined)

>  <ENDPOINT NAME>
LC retention time

>  <DATA VALUE>
6.92 min

$$$$
>  <COMPOUND>
O=C(CCc1ccc(O)cc1)c1c(O)c(C2OC(CO)C(O)C(O)C2O)c(O)c(C2OC(CO)C(O)C(O)C2O)c1O (centres undefined)

>  <ENDPOINT NAME>
LC retention time

>  <DATA VALUE>
4.01 min

$$$$
>  <COMPOUND>
CC1=NCCc2c1[nH]c1cc(O)ccc21

>  <ENDPOINT NAME>
LC retention time

>  <DATA VALUE>
3.06 min

$$$$
>  <COMPOUND>
COC(=O)C1=COC(OC2OC(CO)C(O)C(O)C2O)C2C(CO)=CCC12 (centres undefined)

>  <ENDPOINT NAME>
LC retention time

>  <DATA VALUE>
3.42 min

$$$$
>  <COMPOUND>
C=C1CC23CC4C5C6(C)CC(OC(C)=O)CC57C2C(O)C1C(O)C3(O)C7N4C6 (centres undefined)

>  <ENDPOINT NAME>
LC retention time

>  <DATA VALUE>
3.03 min

$$$$
>  <COMPOUND>
O=S(=O)(O)ON=C(Cc1ccc(O)cc1)SC1OC(CO)C(O)C(O)C1O (centres undefined)

>  <ENDPOINT NAME>
LC retention time

>  <DATA VALUE>
2 min

$$$$
>  <COMPOUND>
COc1cc(C=CC(=O)NCCc2ccc(O)cc2)ccc1O

>  <ENDPOINT NAME>
LC retention time

>  <DATA VALUE>
5.13 min

$$$$

Proceeding to the next compound to report its LC retention time.
Entry NC(CCC(=O)NCC(=O)O)C(=O)O (centres undefined) , LC retention time reported as 1.67 min

Each recorded value in this set is attributed to the RepoRT retention time repository.
